Measured values drawn from patent US11718631B2 for this set.

# measurement target: NLRP3 (Homo sapiens, UniProt Q96P20)
# Construct: IL-1β Production in PMA-Differentiated THP-1 Cells Stimulated with Gramicidin; host or cells: THP-1 cells, PMA-differentiated
# Sequence (Q96P20 whole entry): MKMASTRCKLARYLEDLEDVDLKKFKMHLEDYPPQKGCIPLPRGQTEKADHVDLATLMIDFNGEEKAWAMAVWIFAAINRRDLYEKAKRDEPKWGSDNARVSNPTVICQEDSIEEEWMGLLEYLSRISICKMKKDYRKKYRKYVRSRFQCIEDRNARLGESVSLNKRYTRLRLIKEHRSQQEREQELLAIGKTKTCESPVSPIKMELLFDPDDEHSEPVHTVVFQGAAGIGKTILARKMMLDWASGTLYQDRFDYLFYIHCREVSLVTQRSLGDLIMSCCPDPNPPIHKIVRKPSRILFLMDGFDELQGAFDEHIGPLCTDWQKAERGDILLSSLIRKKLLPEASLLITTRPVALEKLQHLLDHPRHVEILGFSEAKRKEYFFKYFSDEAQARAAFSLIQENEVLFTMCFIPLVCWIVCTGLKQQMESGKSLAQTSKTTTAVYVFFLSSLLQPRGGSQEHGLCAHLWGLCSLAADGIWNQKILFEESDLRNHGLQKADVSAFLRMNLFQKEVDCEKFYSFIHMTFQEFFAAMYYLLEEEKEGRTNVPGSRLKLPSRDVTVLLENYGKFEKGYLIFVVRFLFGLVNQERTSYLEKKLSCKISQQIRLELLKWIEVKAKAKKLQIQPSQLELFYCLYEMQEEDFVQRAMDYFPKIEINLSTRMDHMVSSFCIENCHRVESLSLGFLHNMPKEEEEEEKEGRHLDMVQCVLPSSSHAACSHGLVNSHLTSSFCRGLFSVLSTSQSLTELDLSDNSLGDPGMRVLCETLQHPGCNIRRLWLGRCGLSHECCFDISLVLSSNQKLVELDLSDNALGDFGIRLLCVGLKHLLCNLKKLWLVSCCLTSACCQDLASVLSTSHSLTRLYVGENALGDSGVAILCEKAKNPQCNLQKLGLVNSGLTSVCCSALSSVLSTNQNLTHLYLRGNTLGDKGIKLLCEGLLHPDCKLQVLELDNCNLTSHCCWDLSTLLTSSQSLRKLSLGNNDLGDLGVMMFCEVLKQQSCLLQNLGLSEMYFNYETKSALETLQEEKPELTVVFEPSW
# protocol details: IL-1β production in PMA-differentiated THP-1 cells stimulated with gramicidin (hTHP-1 assay)
# Format: cell-based
# condition label: hTHP-1 assay containing 2% fetal bovine serum; average IC50, class symbols; read-out: NLRP3 Antagonist, human THP1 NLRP3, IL-1b, Normalized: GeoMean IC50
Overview of recorded IC50 for various molecules
readout label: IC50

# molecule, measurement target, obs value
records = [
    ("Cc1ccc(-c2cc(C(C)C)c(CC(=O)NS(=O)(=O)c3ccc(CN(C)C)cc3)c(C(C)C)c2)cc1F [Compound 111]", "NLRP3 (Homo sapiens, UniProt Q96P20)", "1 to 5 µM"),
    ("CC(C)c1cc(C2CCc3ccccc32)cc(C(C)C)c1CC(=O)NS(=O)(=O)c1ccc(CN(C)C)cc1 (centres unmarked) [Compound 322]", "NLRP3 (Homo sapiens, UniProt Q96P20)", "0.2 to 1 µM"),
    ("Cc1ccc(-c2cc(C(C)C)c(CC(=O)NS(=O)(=O)c3ccc(CN(C)C)cc3)c(C(C)C)c2)cc1Cl [Compound 117]", "NLRP3 (Homo sapiens, UniProt Q96P20)", "0.2 to 1 µM"),
    ("CC(C)c1cc(-c2ccc3c(ccn3C(=O)OC(C)(C)C)c2)cc(C(C)C)c1CC(=O)NS(=O)(=O)c1ccc(CN(C)C)cc1 [Compound 115]", "NLRP3 (Homo sapiens, UniProt Q96P20)", "5 to 30 µM"),
    ("Cc1ccc(-c2cc(C(C)C)c(CC(=O)NS(=O)(=O)c3ccc(CN(C)C)cc3)c(C(C)C)c2)cc1 [Compound 110]", "NLRP3 (Homo sapiens, UniProt Q96P20)", "1 to 5 µM"),
    ("CC(C)c1cc(-c2ccccc2S(C)(=O)=O)cc(C(C)C)c1CC(=O)NS(=O)(=O)c1ccc(CN(C)C)cc1 [Compound 125]", "NLRP3 (Homo sapiens, UniProt Q96P20)", "5 to 30 µM"),
    ("CC(C)c1cc(C#CC2CCCCC2)cc(C(C)C)c1CC(=O)NS(=O)(=O)c1ccc(CN(C)C)cc1 [Compound 324]", "NLRP3 (Homo sapiens, UniProt Q96P20)", "0.04 to 0.2 µM"),
    ("C=C(C)c1cc(C(C)C)c(CC(=O)NS(=O)(=O)c2ccc(CN(C)C)cc2)c(C(C)C)c1 [Compound 147]", "NLRP3 (Homo sapiens, UniProt Q96P20)", "1 to 5 µM"),
]

---

# measurement target: NLRP3 (Homo sapiens)
# Construct: IL-1β Production in PMA-Differentiated THP-1 Cells Stimulated with Gramicidin; host or cells: THP-1 cells, PMA-differentiated
# protocol details: IL-1β production in PMA-differentiated THP-1 cells stimulated with gramicidin (hTHP-1 assay)
# Assay type: cell-based
# condition label: hTHP-1 assay containing 2% fetal bovine serum; average IC50, class symbols; read-out: NLRP3 Antagonist, human THP1 NLRP3, IL-1b, Normalized: GeoMean IC50
pIC50: −log10 of the molar value.
readout label: pIC50

# compound, obs value
measured = [
    ("CC(C)c1cc(-c2ccc(Cl)c(Cl)c2)cc(C(C)C)c1CC(=O)NS(=O)(=O)c1ccc(CN(C)C)cc1", "6.00 to 6.70"),
    ("CC(C)c1cc(C#CC2CCCC2)cc(C(C)C)c1CC(=O)NS(=O)(=O)c1ccc(CN(C)C)cc1", "6.70 to 7.40"),
    ("CC(C)c1cc(C2CCCc3ccccc32)cc(C(C)C)c1CC(=O)NS(=O)(=O)c1ccc(CN(C)C)cc1 (centres unmarked)", "5.30 to 6.00"),
    ("COc1ccccc1-c1cc(C(C)C)c(CC(=O)NS(=O)(=O)c2ccc(CN(C)C)cc2)c(C(C)C)c1", "5.30 to 6.00"),
    ("CC(C)c1cc(C2CCC(C)(C)CC2)cc(C(C)C)c1CC(=O)NS(=O)(=O)c1ccc(CN(C)C)cc1", "5.30 to 6.00"),
    ("CC(C)c1cc(-c2ccc(Cl)cc2)cc(C(C)C)c1CC(=O)NS(=O)(=O)c1ccc(CN(C)C)cc1", "5.30 to 6.00"),
    ("Cc1cc(-c2cc(C(C)C)c(CC(=O)NS(=O)(=O)c3ccc(CN(C)C)cc3)c(C(C)C)c2)ccc1Cl", "6.00 to 6.70"),
    ("CC(C)c1cc(-c2ccc(Cl)c(F)c2)cc(C(C)C)c1CC(=O)NS(=O)(=O)c1ccc(CN(C)C)cc1", "5.30 to 6.00"),
    ("CC(C)c1cc(-c2ccccc2CO)cc(C(C)C)c1CC(=O)NS(=O)(=O)c1ccc(CN(C)C)cc1", "4.52 to 5.30"),
    ("CC(C)c1cc(-c2ccccc2OCc2ccccc2)cc(C(C)C)c1CC(=O)NS(=O)(=O)c1ccc(CN(C)C)cc1", "4.52 to 5.30"),
    ("CC(C)c1cc(-c2ccc3ccccc3c2)cc(C(C)C)c1CC(=O)NS(=O)(=O)c1ccc(CN(C)C)cc1", "6.70 to 7.40"),
    ("CC(C)c1cc(C2Cc3ccccc3C2)cc(C(C)C)c1CC(=O)NS(=O)(=O)c1ccc(CN(C)C)cc1", "5.30 to 6.00"),
    ("CC(C)c1cc(-c2cccc(Cl)c2)cc(C(C)C)c1CC(=O)NS(=O)(=O)c1ccc(CN(C)C)cc1", "6.00 to 6.70"),
    ("CC(C)c1cc(C#CC2CCOCC2)cc(C(C)C)c1CC(=O)NS(=O)(=O)c1ccc(CN(C)C)cc1", "5.30 to 6.00"),
    ("CC(C)c1cc(-c2ccc(F)c(Cl)c2)cc(C(C)C)c1CC(=O)NS(=O)(=O)c1ccc(CN(C)C)cc1", "6.00 to 6.70"),
    ("C#Cc1cc(C(C)C)c(CC(=O)NS(=O)(=O)c2ccc(C(C)N(C)C)cc2)c(C(C)C)c1 (centres unmarked)", "5.30 to 6.00"),
    ("CC(C)c1cc(Br)cc(C(C)C)c1CC(=O)NS(=O)(=O)c1ccc(CN(C)C)cc1", "5.30 to 6.00"),
    ("Cc1cc(-c2cc(C(C)C)c(CC(=O)NS(=O)(=O)c3ccc(CN(C)C)cc3)c(C(C)C)c2)ccc1F", "6.00 to 6.70"),
    ("CC(C)c1cc(-c2cccc3cccnc23)cc(C(C)C)c1CC(=O)NS(=O)(=O)c1ccc(CN(C)C)cc1", "5.30 to 6.00"),
    ("CC(C)c1cc(CC2=CCCCC2)cc(C(C)C)c1CC(=O)NS(=O)(=O)c1ccc(CN(C)C)cc1", "5.30 to 6.00"),
    ("CC(C)c1cc(CCC2CCCC2)cc(C(C)C)c1CC(=O)NS(=O)(=O)c1ccc(CN(C)C)cc1", "5.30 to 6.00"),
    ("CC(C)c1cc(-c2ccc3c(c2)OC(F)(F)O3)cc(C(C)C)c1CC(=O)NS(=O)(=O)c1ccc(CN(C)C)cc1", "6.00 to 6.70"),
    ("CC(C)c1cc(C2CCc3ccccc3C2)cc(C(C)C)c1CC(=O)NS(=O)(=O)c1ccc(CN(C)C)cc1 (centres unmarked)", "5.30 to 6.00"),
    ("CC(C)c1cc(C2=CCCC2)cc(C(C)C)c1CC(=O)NS(=O)(=O)c1ccc(CN(C)C)cc1", "5.30 to 6.00"),
    ("Cc1ccc(-c2cc(C(C)C)c(CC(=O)NS(=O)(=O)c3ccc(CN(C)C)cc3)c(C(C)C)c2)cc1C", "6.00 to 6.70"),
    ("CC(C)c1cc(C2CCCC2)cc(C(C)C)c1CC(=O)NS(=O)(=O)c1ccc(CN(C)C)cc1", "4.52 to 5.30"),
    ("CC(C)c1cc(Cl)cc(C(C)C)c1CC(=O)NS(=O)(=O)c1ccc(CN(C)C)cc1", "5.30 to 6.00"),
    ("C/C=C(\\C)c1cc(C(C)C)c(CC(=O)NS(=O)(=O)c2ccc(CN(C)C)cc2)c(C(C)C)c1", "5.30 to 6.00"),
    ("CC(C)c1cc(CC2CCCCC2)cc(C(C)C)c1CC(=O)NS(=O)(=O)c1ccc(CN(C)C)cc1", "4.52 to 5.30"),
]
